Test system: HS 578T breast
Assay: NCI tumour cell line growth inhibition, 48 h
measuredProperty: TGI (µM)

compound="CC(C)(C)N1CCC1C(N)=O (stereo unspecified)" measuredproperty=TGI unitlabel=µM readoutrelation=> experimentalresult=100
compound="Cc1ccc(C(CN(C)C)C(=O)c2ccccc2)cc1 (stereo unspecified)" measuredproperty=TGI unitlabel=µM readoutrelation== experimentalresult=33.6
compound=Nc1ccccc1C#C/C=C\C#Cc1ccccc1C(F)(F)F measuredproperty=TGI unitlabel=µM readoutrelation== experimentalresult=25.2
compound=Nc1ccc2c(SCCSc3c4ccccc4nc4cc(N)ccc34)c3ccccc3nc2c1 measuredproperty=TGI unitlabel=µM readoutrelation=> experimentalresult=100
compound=OCc1cn(Cc2cccc(Cl)c2)c2ccccc12 measuredproperty=TGI unitlabel=µM readoutrelation== experimentalresult=33.7
compound=Cc1cc(C)c(C#N)c(SC(=S)NC(=O)c2ccccc2)n1 measuredproperty=TGI unitlabel=µM readoutrelation=> experimentalresult=100

* * *

System: HS 578T breast
Experiment: NCI tumour cell line growth inhibition, 48 h; in the data active = GI50 below about 0.43 µM; inactive = the rest
Labels: Y (active), N (inactive)

compound=CC1=C(/C=C/C(C)=C\C=C\C(C)=C\C(=O)Nc2ccc3c(c2)OCO3)C(C)(C)CCC1 targetundertest="HS 578T breast" qualitativelabel=N
compound=Cc1ccc2c(c1)nc(C(=O)c1ccco1)c(C(F)(F)F)[n+]2[O-] targetundertest="HS 578T breast" qualitativelabel=N
compound=COc1ccc(/C=C/C(=O)c2cc3c(N)c(C(=O)Nc4ccccc4Cl)sc3nc2C)cc1 targetundertest="HS 578T breast" qualitativelabel=N
compound=Cc1ccc(C(=O)Nc2ccc(CN3CCN(C)CC3)c(C(F)(F)F)c2)cc1C#Cc1cnc(N)cc1C#N targetundertest="HS 578T breast" qualitativelabel=Y
compound=CCCCn1c2cc(OCc3cn(-c4ccc(Cl)cc4)nn3)ccc2c2ccnc(C)c21 targetundertest="HS 578T breast" qualitativelabel=N
compound=COc1cc(Nc2nc3cc(N)cc(N)c3nc2-c2ccccc2)cc(OC)c1 targetundertest="HS 578T breast" qualitativelabel=N
compound=Cc1c(C#N)cccc1-c1cc(-c2cn(Cc3cccc(C(C)(C)O)n3)nn2)nc(N)n1 targetundertest="HS 578T breast" qualitativelabel=N
compound="CSc1nc2c(c(=O)[nH]1)N=C1c3ccccc3C(=O)C1C(c1ccc(F)cc1)N2 (centres undefined)" targetundertest="HS 578T breast" qualitativelabel=N
compound=N[C@@H](Cc1c[nH]c2ccccc12)C(=O)NC1CCN(C(=O)c2c[nH]c3ccccc23)CC1 targetundertest="HS 578T breast" qualitativelabel=N

* * *

Tested on: IGROV1 ovarian
Assay: NCI tumour cell line growth inhibition, 48 h
measuredProperty: TGI

molecule="Cc1cc(=O)[nH]c(NN2C(Cl)C(=O)C2c2ccco2)n1 (stereo unspecified)" experimentalresult="> 100 µM"
molecule=O=C(NCCNCCO)N/N=C/c1ccccc1 experimentalresult="> 100 µM"
molecule=CCN(CC)c1ccc(/C=C\c2cc(C)c3cc(C)ccc3n2)cc1 experimentalresult="> 100 µM"
molecule=CCCCN(CCCC)C1=Nc2ccccc2-n2c(nnc2C(=O)OCC)C1 experimentalresult="> 100 µM"
molecule="CC[C@]1(O)CC2CN(CCc3c([nH]c4ccccc34)[C@@](C(=O)OC)(c3cc4c(cc3OC)N(C)[C@H]3[C@@](O)(C(=O)OC)[C@H](OC(C)=O)[C@]5(CC)C=CCN6CC[C@]43[C@@H]65)C2)C1 (stereo partly specified)" experimentalresult="> 30 µM"
molecule=O=C(O)C(=Cc1ccnc2ccccc12)C(=O)O experimentalresult="> 100 µM"

* * *

System: HCT-15 colon
Test: NCI tumour cell line growth inhibition, 48 h
measuredProperty: TGI

compound=Cc1cc2nc3c(N)nn(CCN(C)C)c3nc2cc1C targetundertest="HCT-15 colon" experimentalresult="> 100 µM"
compound=Cc1cn([C@@H]2C[C@](C)(CO)N(C)O2)c(=O)[nH]c1=O targetundertest="HCT-15 colon" experimentalresult="> 100 µM"
compound=O=C(O)c1ccc2c(c1)Cc1cc([N+](=O)[O-])ccc1-2 targetundertest="HCT-15 colon" experimentalresult="> 100 µM"
compound="C=C1CC(Cn2cc(Br)c(=O)[nH]c2=O)(c2ccc(Br)cc2)OC1=O (configuration not stated)" targetundertest="HCT-15 colon" experimentalresult="3.85 µM"
compound=C/C(=N/S(=O)(=O)c1ccc(Cl)c(Cl)c1)OCC(C)(C)C targetundertest="HCT-15 colon" experimentalresult="> 100 µM"
compound="CC(O)/C=C/C(CCC(C)CO)C(C)C (configuration not stated)" targetundertest="HCT-15 colon" experimentalresult="> 100 µM"
compound=O=C1/C(=C(/Br)I)c2ccccc2-c2ccccc21 targetundertest="HCT-15 colon" experimentalresult="16.6 µM"
compound=O=C(/C=C/c1ccc(OCC(=O)N2CCN(c3ccccc3)CC2)cc1)c1ccc(Cl)cc1 targetundertest="HCT-15 colon" experimentalresult="> 100 µM"
compound=O=C(O)c1cc2ccccc2c(O)c1O targetundertest="HCT-15 colon" experimentalresult="42.6 µM"
compound="O=C1c2ccccc2C2(c3ccc(Cl)cc3)N[C@@H]3CCCC[C@@H]3N12 (some centres not stated)" targetundertest="HCT-15 colon" experimentalresult="> 100 µM"
compound=Nc1cc2ncnc(Nc3cccc(Br)c3)c2cn1 targetundertest="HCT-15 colon" experimentalresult="> 100 µM"
compound=COc1ccc(/C=N/N=C(\N)NO)cc1OC targetundertest="HCT-15 colon" experimentalresult="> 100 µM"

* * *

Tested on: HCT-116 colon
Assay: NCI tumour cell line growth inhibition, 48 h
# GI50 values compiled below
measuredProperty: GI50

molecule=C[C@@H]1C=C(CCCCCCCCCCC[C@H](O)[C@@H]2CCC(=O)O2)C(=O)O1 measuredproperty=GI50 experimentalresult="28 µM"
molecule=COc1ccccc1-[n+]1cc(-c2ccc(-c3ccccc3)cc2)n2c1CCCCC2 measuredproperty=GI50 experimentalresult="0.231 µM"
molecule=C(=N\Nc1ccccn1)/c1ccccn1 measuredproperty=GI50 experimentalresult="0.303 µM"
molecule=O=Cc1c(-c2cc(O)ccc2O)nc2sccn12 measuredproperty=GI50 experimentalresult="14 µM"
molecule=CCN(Cc1cccc(OC)c1)c1ccc(CO)c(Cl)c1 measuredproperty=GI50 experimentalresult="0.0731 µM"
molecule=OCCCCC#Cc1ccccc1C#Cc1ccccc1 measuredproperty=GI50 experimentalresult="16.8 µM"
molecule=[Cl][Bi]([O]c1ccccn1)[O]c1ccccn1 measuredproperty=GI50 experimentalresult="> 100 µM"
molecule=C1CC[N-]CC1.C1CC[N-]CC1.C1CC[N-]CC1.C1CC[N-]CC1.[Cl][Rh][Cl] measuredproperty=GI50 experimentalresult="4.75 µM"
molecule=O=C(/C=C/c1cccnc1)NCCCCC1CCN(C(=O)c2ccccc2)CC1 measuredproperty=GI50 experimentalresult="< 0.01 µM"
molecule=NC(=O)c1cnc(N[C@@H]2CCCC[C@@H]2N)nc1Nc1cccc(-n2nccn2)c1 measuredproperty=GI50 experimentalresult="2.3 µM"
molecule=N[C@@H](Cc1c[nH]c2ccccc12)C(=O)NC1CCN(C(=O)c2c[nH]c3ccccc23)CC1 measuredproperty=GI50 experimentalresult="36.3 µM"
molecule=O=c1cccc(C#CC#C[C@H]2O[C@@H]2CO)o1 measuredproperty=GI50 experimentalresult="0.638 µM"
molecule="CCOP(=O)(OCC)C(NC(c1ccccc1)c1ccccc1)c1ccccc1 (stereo not drawn)" measuredproperty=GI50 experimentalresult="13.2 µM"

* * *

# GI50 values compiled below
Test system: A549 NSCLC
Assay: NCI tumour cell line growth inhibition, 48 h
measuredProperty: GI50

compound=COc1ccc2c3c([nH]c2c1)-c1nc2ccccc2c(=O)n1CC3 measuredproperty=GI50 experimentalresult="0.754 µM"
compound=OCCCCC#Cc1ccccc1C#Cc1ccccc1 measuredproperty=GI50 experimentalresult="21.3 µM"
compound=C=C1C(=O)O[C@H]2[C@H]1CC/C(COC(=O)/C=C/C(=O)OC/C1=C/CC[C@@]3(C)O[C@H]3[C@H]3OC(=O)C(=C)[C@@H]3CC1)=C\CC[C@@]1(C)O[C@@H]21 measuredproperty=GI50 experimentalresult="> 100 µM"
compound=NC(=O)c1cnc(N[C@@H]2CCCC[C@@H]2N)nc1Nc1cccc(-n2nccn2)c1 measuredproperty=GI50 experimentalresult="3.58 µM"
compound=CCCCn1c2cc(OCc3cn(-c4ccc(Cl)cc4)nn3)ccc2c2ccnc(C)c21 measuredproperty=GI50 experimentalresult="8 µM"
compound=O=Cc1c(-c2cc(O)ccc2O)nc2sccn12 measuredproperty=GI50 experimentalresult="25.7 µM"
compound=N#Cc1c(C(=O)c2ccccc2)cnn1-c1ccccc1 measuredproperty=GI50 experimentalresult="> 25 µM"
compound=C(=N\Nc1ccccn1)/c1ccccn1 measuredproperty=GI50 experimentalresult="0.501 µM"
compound=OCc1cn(Cc2cccc(Cl)c2)c2ccccc12 measuredproperty=GI50 experimentalresult="15 µM"
compound="C[C@]12CCC3[C@@H](C[C@@H]4SC(Nc5ccccc5)=N[C@@]45CC(=O)CC[C@]35C)[C@@H]1CCC2=O (some centres not stated)" measuredproperty=GI50 experimentalresult="26.4 µM"
compound=O=c1cccc(C#CC#C[C@H]2O[C@@H]2CO)o1 measuredproperty=GI50 experimentalresult="1.77 µM"
compound=Cc1c(C#N)cccc1-c1cc(-c2cn(Cc3cccc(C(C)(C)O)n3)nn2)nc(N)n1 measuredproperty=GI50 experimentalresult="26.9 µM"
